# Tested on: biotinyl-Ile-oxazolone
# test.protocol: self-aminoacylation, catalytic enhancement (BIO) (fold over background); higher = more active; k-Seq, kA / k0A0; sequences stand for … in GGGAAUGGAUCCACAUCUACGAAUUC…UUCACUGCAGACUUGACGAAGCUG
Fewer inactive variants are shown than the library holds.
Assign class by self-aminoacylation: not lower than 1 means TRUE; lower than 1 means FALSE.

[[record]]
seq_string = "ACACACUUCAAGCAACCGGUC [Fam1B.1 aminoacylation ribozyme variant]"
tested_on = "biotinyl-Ile-oxazolone"
class_label = "TRUE"

[[record]]
seq_string = "UUUACCCUGGUCAACGAGUGA [Fam2.1 aminoacylation ribozyme variant]"
tested_on = "biotinyl-Ile-oxazolone"
class_label = "TRUE"

[[record]]
seq_string = "AAGUUUGCUAAUAGUCGCUAA [Fam3.1 aminoacylation ribozyme variant]"
tested_on = "biotinyl-Ile-oxazolone"
class_label = "TRUE"

[[record]]
seq_string = "AAGUUUGCUUAUAGACGCAAG [Fam3.1 aminoacylation ribozyme variant]"
tested_on = "biotinyl-Ile-oxazolone"
class_label = "FALSE"

[[record]]
seq_string = "UUUCACCUAGGUCAUCGAGUG [Fam2.2 aminoacylation ribozyme variant]"
tested_on = "biotinyl-Ile-oxazolone"
class_label = "TRUE"

